Reference for the values: PubChem BioAssay AID330

- Test system: P388 leukemia ip, CD2F1 mice, survival T/C
- ASSAY_PROTOCOL: NCI In Vivo Anticancer Drug Screen. Data for tumor model P388 Leukemia (intraperitoneal) in CD2F1 (CDF1) mice
- CONDITION_DESCRIPTION: endpoint: median survival time; dose: 25.0 mg/kg/injection; schedule: Q01DX005 (ip); vehicle: saline with Tween-80; higher = longer survival
Inconclusive results and toxic doses are left out.
ASSAY_ENDPOINT: T/C

- CNC(=O)OCc1c(COC(=O)NC)c2n(c1C)CCS2(=O)=O: 106 % of control
- CN=C(NC)c1ccc(NC(=O)/C=C/C(=O)Nc2ccc(C(=NC)NC)cc2)cc1: 99 % of control

Quick one: T/C for Cc1ccc(NC2=C([n+]3ccc(C)cc3)C(=O)c3ccccc3C2=O)cc1 ? 109 % of control

Return reported T/C; argument: CO[C@@]12[C@@H]3N[C@@H]3CN1C1=C(C(=O)C(N3CCCC3)=C(C)C1=O)[C@@H]2COC(N)=O 87 % of control

# T/C lookup, item Cc1ccc(-n2nc(C(O)C(O)C(O)CO)c3nc4cc(C)c(C)cc4nc32)cc1 (stereo unspecified) 98 % of control

So what's the measured T/C for this one? CCCCN(CCCC)C(C)C(=O)c1ccc2cc(Br)c3ccccc3c2c1 (stereo unspecified) 101 % of control

====

- Tested on: P388 leukemia ip, CD2F1 mice, survival T/C
- ASSAY_PROTOCOL: NCI In Vivo Anticancer Drug Screen. Data for tumor model P388 Leukemia (intraperitoneal) in CD2F1 (CDF1) mice
- CONDITION_DESCRIPTION: endpoint: median survival time; dose: 100.0 mg/kg/injection; schedule: Q04DX003 (ip); vehicle: Klucel (hydroxypropylcellulose) (HPC); higher = longer survival
Toxic doses and inconclusive results are not listed.
# reported T/C; entries follow

- O=C(CC(O)(c1ccccc1)c1ccccc1)SCc1ccccc1: 102 % of control

Bench note: what T/C did C=CCSC(=S)Nc1nc2ccc(C)cc2s1 show? 96 % of control

If you can, please state the reported T/C value of c1ccc(CN2Cc3c(n(-c4ccccc4)c4ccccc34)C2)cc1 . 105 % of control

T/C for COC(=O)C1=CN(c2ccccc2)C(=O)C1 ? 118 % of control

# input molecule: c1ccc(CCc2ccnc3c2ccc2ccccc23)cc1 ; wanted: its T/C 99 % of control

Sample Cn1cnc2cc(N3CCCCC3)c(Nc3ccc([N+](=O)[O-])cc3[N+](=O)[O-])cc2c1=O — what was its T/C? 103 % of control

Which T/C is reported for this molecule? CS(=O)(=O)OC1CC(Cl)CO1 (configuration not stated) 100 % of control

Entry O=Cc1c(-c2ccccc2)nc2sccn12 : reported T/C = ? 96 % of control

Give its T/C value. Item: CC1(C)CC(=O)C(CC2=C(N)CC(C)(C)CC2=O)=C(N)C1 94 % of control

# lookup: T/C of CCOc1c(OC)cc(-c2n[nH]c(=S)o2)cc1OC 101 % of control

Field request: T/C | item: Nc1ccccc1NC(=O)c1nc2ccccc2[nH]1 106 % of control

Any idea what its T/C is? The molecule is O=C1/C(=C/N2CCN(c3ccccc3)CC2)Cc2c(F)cccc21 100 % of control

====

- Test system: P388 leukemia ip, CD2F1 mice, survival T/C
- ASSAY_PROTOCOL: NCI In Vivo Anticancer Drug Screen. Data for tumor model P388 Leukemia (intraperitoneal) in CD2F1 (CDF1) mice
- CONDITION_DESCRIPTION: endpoint: median survival time; dose: 50.0 mg/kg/injection; schedule: Q01DX009 (ip); vehicle: Klucel (hydroxypropylcellulose) (HPC); higher = longer survival
Inconclusive results and toxic doses are left out.
List of T/C values.

Would you please look over these solved cases?
- O=C(COc1ccc(Cl)cc1Cl)N1CCNC1=O: 103 % of control
- CCC/C(C)=C(/C#N)CC: 101 % of control
- Cc1cccc(Nc2n[nH]c(N)n2)c1: 91 % of control
- O=C(Nc1ccc(Cl)c(Cl)c1)C1C(=O)C(=O)N(c2ccc(Cl)c(Cl)c2)C1=O (stereo unspecified): 97 % of control
- Cc1cc(C)c(S(=O)(=O)Sc2nnnn2-c2ccccc2)c(C)c1: 100 % of control

Give P388 leukemia ip, CD2F1 mice, survival T/C T/C for Nc1cc(-c2ccc(Br)cc2)nn1-c1nc(-c2ccc(Br)cc2)cs1 86 % of control

So what T/C did O=C1CC2(CCCC2)CC(=O)N1c1ccc(-c2ccc(N3C(=O)CC4(CCCC4)CC3=O)cc2)cc1 get with P388 leukemia ip, CD2F1 mice, survival T/C? 100 % of control

Query T/C on P388 leukemia ip, CD2F1 mice, survival T/C for CCN(CC)C1CS(=O)(=O)OC2=C1CCCc1ccccc12 (stereo unspecified) 104 % of control

Observed T/C on P388 leukemia ip, CD2F1 mice, survival T/C for C=C1C(=O)OC(C)(C)C1c1ccc(Cl)c(Cl)c1 (stereo unspecified) , please. 93 % of control

Please provide the recorded T/C for NC1=C(Cl)C(=O)C(N)=C(Cl)C1=O , tested on P388 leukemia ip, CD2F1 mice, survival T/C. 100 % of control

Hi! What's the reported T/C for Cc1ccc(S(=O)(=O)N2CC3CC(C2)C(=O)NC3=O)cc1 on P388 leukemia ip, CD2F1 mice, survival T/C? 104 % of control

====

- System: P388 leukemia ip, CD2F1 mice, survival T/C
- ASSAY_PROTOCOL: NCI In Vivo Anticancer Drug Screen. Data for tumor model P388 Leukemia (intraperitoneal) in CD2F1 (CDF1) mice
- CONDITION_DESCRIPTION: endpoint: median survival time; dose: 100.0 mg/kg/injection; schedule: Q04DX002 (ip); vehicle: saline with Tween-80; higher = longer survival
- Method: The antitumor activity of compounds was measured in mice bearing transplantable tumors. Survival or tumor size were measured and the results are expressed as the measurement made in the treated group (T) divided by the measurement made in the vehicle treated control group (C). The tumor model used in this assay is P388 Leukemia (intraperitoneal) in CD2F1 (CDF1) mice
Inconclusive results and toxic doses are left out.
ASSAY_ENDPOINT: T/C

Report T/C for CCCCCNCC(=O)ON1CCCC1C(=O)NC(Cc1ccccc1)C(=O)NC(CC(C)C)C(=O)O (stereo not drawn) please. 104 % of control

For CCOC(=O)N(O)c1ccc(C)cc1 , what is its reported T/C? 109 % of control

Which value of T/C has been reported for CC1C(=O)C2(C(=O)O)CC1CCC2C12C=CC(=O)C(C)(C)C1C(=O)OC2 (stereo not drawn) in the records? 95 % of control

What does the data say about its T/C? Entry: COC(=O)c1ccc(OC)c(OC)c1-c1c(C(=O)OC)c(C(=O)OC)c2n1CCc1cc3c(cc1-2)OCO3 100 % of control

Any idea what its T/C is? The compound is CC(C)(C)c1cc(/C2=c3\cc/c([n-]3)=C(\c3cc(C(C)(C)C)c(O)c(C(C)(C)C)c3)c3ccc([n-]3)/C(c3cc(C(C)(C)C)c(O)c(C(C)(C)C)c3)=c3/cc/c([n-]3)=C(\c3cc(C(C)(C)C)c(O)c(C(C)(C)C)c3)c3ccc2[n-]3)cc(C(C)(C)C)c1O.[Zn] 97 % of control

So what's the measured T/C for this one? Nc1[nH]cnc(=S)c1N 106 % of control

Would you mind telling me what T/C value was observed for CSc1nc(NN)c2cnn(C3CCCCO3)c2n1 (stereo not drawn) ? 100 % of control

Would you kindly share the measured T/C for [Cu+2].[O-]/C(=N\N=C\c1ccccn1)c1ccc(Cl)cc1.[O-]/C(=N\N=C\c1ccccn1)c1ccc(Cl)cc1 ? 93 % of control

====

- Test system: P388 leukemia ip, CD2F1 mice, survival T/C
- ASSAY_PROTOCOL: NCI In Vivo Anticancer Drug Screen. Data for tumor model P388 Leukemia (intraperitoneal) in CD2F1 (CDF1) mice
- CONDITION_DESCRIPTION: endpoint: median survival time; dose: 200.0 mg/kg/injection; schedule: Q01DX001 (ip); vehicle: saline; higher = longer survival
Toxic doses and inconclusive results are not listed.
Recorded T/C for the following compounds

- COc1ccc(S(=O)(=O)c2cnc(N)nc2N)cc1: 93 % of control
- CN1CC(C2(O)CCN(C)C2=O)C(O)C1=O (stereo not drawn): 97 % of control

So what does the record say about T/C for N#Cc1c(-c2ccccc2)c(-c2ccccc2)n[nH]c1=O ? 96 % of control

Would you mind telling me what T/C value was observed for CN1CCC(O)(/C=C\C2(O)CCN(C)CC2)CC1 ? 89 % of control

Data request, read-out T/C, for C=C1CC2(CC3CCC2(C)C3(C)C)OC1=O (stereo not drawn) 99 % of control

For the compound shown here, N#CCCCCCCCCCCCCCC1C=CCC1 (stereo not drawn) , give the reported T/C. 99 % of control

Fill in: T/C of CCOC(=O)C(Cc1ccccc1)P(=O)(OCC)OCC (stereo not drawn) is ___ 100 % of control

Record request: T/C value, item N=CC1=C(O)CCOC1=O 99 % of control
